Hi there, I'd appreciate the recorded pIC50 for every entry that follows.
system: 313798-341-R-J2-PDC spheroids, viability; assay: Anticancer human tumor 313798-341-R-J2-PDC patient-derived cervical squamous cell carcinoma cell line growth inhibition [PI3K]; conditions: curve of first compound; second compound 1 µM; spheroids with HUVEC and MSC
pIC50: −log10 of the molar value.

Look at this compound and give its reported pIC50. CCN1CCN(Cc2ccc(Nc3ncc(F)c(-c4cc(F)c5nc(C)n(C(C)C)c5c4)n3)nc2)CC1 + CC(Nc1ccc2c(c1)OCCn1cc(N3C(=O)OCC3C(F)F)nc1-2)C(N)=O
< 6.00

Do the same for Cn1cnc2c(F)c(Nc3ccc(Br)cc3Cl)c(C(=O)NOCCO)cc21 + CC(Nc1ncnc2nc[nH]c12)c1cc2cccc(Cl)c2c(=O)n1-c1ccccc1 please
< 5.52

Do the same for CC(=O)c1c(C)c2cnc(Nc3ccc(N4CCNCC4)cn3)nc2n(C2CCCC2)c1=O + Cc1nc(NC(=O)N2CCCC2C(N)=O)sc1-c1ccnc(C(C)(C)C(F)(F)F)c1 please
< 7.00

====

Hi there, I'd appreciate the recorded IC50 for every entry that follows.
test system: 313798-341-R-J2-PDC spheroids, viability; test: Anticancer human tumor 313798-341-R-J2-PDC cell line growth inhibition [PI3K]; settings: curve of first compound; second compound 1 µM; spheroids with HUVEC and MSC;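 also: spheroids exposed to compounds for seven days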
Numbers only; they are read as µM.

Look at this compound and give its reported IC50. CCCS(=O)(=O)Nc1ccc(F)c(C(=O)c2c[nH]c3ncc(-c4ccc(Cl)cc4)cc23)c1F + CC(Nc1ncnc2nc[nH]c12)c1cc2cccc(Cl)c2c(=O)n1-c1ccccc1
7.03

Do the same for Cn1ncc(Cl)c1-c1cc(C(=O)NC(CN)Cc2cccc(F)c2)sc1Cl (stereo not given) + CC(Nc1ccc2c(c1)OCCn1cc(N3C(=O)OCC3C(F)F)nc1-2)C(N)=O please
0.19

Do the same for CC1(C)CCC(CN2CCN(c3ccc(C(=O)NS(=O)(=O)c4ccc(NCC5CCOCC5)c([N+](=O)[O-])c4)c(Oc4cnc5[nH]ccc5c4)c3)CC2)=C(c2ccc(Cl)cc2)C1 + CC(Nc1ncnc2nc[nH]c12)c1cc2cccc(Cl)c2c(=O)n1-c1ccccc1 please
9.98

Do the same for Cn1nccc1Nc1nccc(-c2ccn(C(CO)c3ccc(Cl)c(F)c3)c(=O)c2)n1 (stereo not given) + CC(Nc1ccc2c(c1)OCCn1cc(N3C(=O)OCC3C(F)F)nc1-2)C(N)=O please
0.219

====

tested on: 313798-341-R-J2-PDC spheroids, viability; assay: Anticancer human tumor 313798-341-R-J2-PDC cell line growth inhibition [PI3K]; settings: second compound 3.16 µM; first compound 0.316 µM; stronger effect = lower value; spheroids with HUVEC and MSC;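 also: spheroids exposed to compounds for seven days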;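 as to viability, T/C: 100% = DMSO vehicle control viability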
Hi there, I'd appreciate the recorded viability, T/C for every entry that follows.
Numbers only; they are read as %.

Look at this compound and give its reported viability, T/C. CC1(C)CCC(Nc2ncc(C(F)(F)F)c(-c3c[nH]c4c(P(C)(C)=O)c(C#N)ccc34)n2)CN1 (stereo unspecified) + Cc1nc(NC(=O)N2CCCC2C(N)=O)sc1-c1ccnc(C(C)(C)C(F)(F)F)c1
23.7

Do the same for CC(C)NCC(C(=O)N1CCN(c2ncnc3c2C(C)CC3O)CC1)c1ccc(Cl)cc1 (stereo unspecified) + CC(Nc1ncnc2nc[nH]c12)c1cc2cccc(Cl)c2c(=O)n1-c1ccccc1 please
89.8

Do the same for Cn1nccc1Nc1nccc(-c2ccn(C(CO)c3ccc(Cl)c(F)c3)c(=O)c2)n1 (stereo unspecified) + CC(Nc1ncnc2nc[nH]c12)c1cc2cccc(Cl)c2c(=O)n1-c1ccccc1 please
94.1

Do the same for CC1(C)CCC(CN2CCN(c3ccc(C(=O)NS(=O)(=O)c4ccc(NCC5CCOCC5)c([N+](=O)[O-])c4)c(Oc4cnc5[nH]ccc5c4)c3)CC2)=C(c2ccc(Cl)cc2)C1 + Cc1nc(NC(=O)N2CCCC2C(N)=O)sc1-c1ccnc(C(C)(C)C(F)(F)F)c1 please
63.9

Do the same for CNC(=O)c1ccc(N2C(=S)N(c3ccc(C#N)c(C(F)(F)F)c3)C(=O)C2(C)C)cc1F + CC(Nc1ncnc2nc[nH]c12)c1cc2cccc(Cl)c2c(=O)n1-c1ccccc1 please
92.9

Do the same for CC1(C)CCC(CN2CCN(c3ccc(C(=O)NS(=O)(=O)c4ccc(NCC5CCOCC5)c([N+](=O)[O-])c4)c(Oc4cnc5[nH]ccc5c4)c3)CC2)=C(c2ccc(Cl)cc2)C1 + CC(Nc1ncnc2nc[nH]c12)c1cc2cccc(Cl)c2c(=O)n1-c1ccccc1 please
85.2

# credit: PubChem BioAssay AID1963982
